- Tested target: Hck (UniProt P08631)
- Sequence (P08631 whole entry, looked up): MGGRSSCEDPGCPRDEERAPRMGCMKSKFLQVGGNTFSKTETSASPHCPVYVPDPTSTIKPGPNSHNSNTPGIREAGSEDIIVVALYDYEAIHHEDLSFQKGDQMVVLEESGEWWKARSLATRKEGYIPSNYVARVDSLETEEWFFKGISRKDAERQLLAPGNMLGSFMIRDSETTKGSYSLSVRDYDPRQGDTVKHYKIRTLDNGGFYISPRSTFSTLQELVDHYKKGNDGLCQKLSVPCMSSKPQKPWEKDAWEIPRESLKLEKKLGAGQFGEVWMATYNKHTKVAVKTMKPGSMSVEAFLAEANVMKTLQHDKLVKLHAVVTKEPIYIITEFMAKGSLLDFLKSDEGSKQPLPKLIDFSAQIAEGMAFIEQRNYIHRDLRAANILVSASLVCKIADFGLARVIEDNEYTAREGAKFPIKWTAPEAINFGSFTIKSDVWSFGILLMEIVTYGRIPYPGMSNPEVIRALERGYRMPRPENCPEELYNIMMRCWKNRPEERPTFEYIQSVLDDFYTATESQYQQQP
- Test description: phosphorylation enrichment, bacterial display (enrichment ratio); higher = better substrate or ligand; peptides without Tyr show the background;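 also: 11-residue human phosphosite peptides and single-mutation variants displayed on the E. coli surface, counted by deep sequencing, each peptide's frequency after selection divided by its frequency in the unselected input library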;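 also: frequency after pTyr selection over input frequency; kinase dosed for 20-30% of maximal phosphorylation in three min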
phosphorylation enrichment of 0.7 or higher: y. Under 0.7: n.

| Seq text | Classification |
| --- | --- |
| IQKKFYRAILE [CHD7_Y1218_YF] | n |

*Q* Decide: is the reported value of phosphorylation enrichment for PGIRMYQVQYN [LRFN1_Y454] equal to or greater than 0.7?
*A* n

*Q* Decide: is the reported value of phosphorylation enrichment for PATINYLFEKG [NDUFS8_Y84_P85L] equal to or greater than 0.7?
*A* n

*Q* Decide: is the reported value of phosphorylation enrichment for LENSTYQFIRV [CRB1_Y760_YF] equal to or greater than 0.7?
*A* y

*Q* Decide: is the reported value of phosphorylation enrichment for RVILRYVNPGN [LAMA3_Y791_T796N] equal to or greater than 0.7?
*A* y

*Q* Decide: is the reported value of phosphorylation enrichment for ADKAAYLQSMN [MYH2_Y389_L393M] equal to or greater than 0.7?
*A* n

*Q* Decide: is the reported value of phosphorylation enrichment for VATRWYWSPEL [CDKL5_Y177_R178W] equal to or greater than 0.7?
*A* n

*Q* Decide: is the reported value of phosphorylation enrichment for QRIHDYYEHRY [HCN4_Y554] equal to or greater than 0.7?
*A* y

*Q* Decide: is the reported value of phosphorylation enrichment for PIPAAYNRFDQ [CDC73_Y290_YF] equal to or greater than 0.7?
*A* n

*Q* Decide: is the reported value of phosphorylation enrichment for HRGCLYLAIEF [TEK_Y899_Y897C_YF] equal to or greater than 0.7?
*A* n

*Q* Decide: is the reported value of phosphorylation enrichment for KFDLMYAKCAF [TUBA1A_Y399_R402C] equal to or greater than 0.7?
*A* n
